ASSAY_REMARKS: Cmax in Sprague-Dawley rat at 2 mg/kg, po and 1 mg/kg, iv
Assay type: ADME, organism-based
CONDITION_PARAMETERS: in vivo

[
  {
    "COMPOUND_SMILES": "Cc1ccc(NC(=O)C(C)C)cc1C1CCN(CCCNC(=O)[C@@H](C)c2ccc(F)cc2)CC1",
    "UNIT_STRING": "ng/mL",
    "Cmax": 305
  },
  {
    "COMPOUND_SMILES": "CC(C)C(=O)Nc1cc(C2CCN(CCCNC(=O)C(c3ccc(F)cc3)c3ccc(F)cc3)CC2)c(F)cc1F",
    "UNIT_STRING": "ng/mL",
    "Cmax": 80
  }
]
